Entry source: patent US8722578B2

Below, each entry is listed alongside its reported melting point.

Below: 3 molecules and their reported melting point.
>>> reported_value("CCOC(=O)OC1=C(c2cc(C)ccc2C)C(=O)NC12CCN(OC)CC2 [Compound P1]")
"170 to 173 °C"
>>> reported_value("CON1CCC2(CC1)NC(=O)C(c1cc(Br)c(C)cc1C)=C2OC(=O)C(C)(C)C [Compound P52]")
"225 to 226 °C"
>>> reported_value("CON1CCC2(CC1)NC(=O)C(c1ccc(C3CC3)cc1C)=C2OC(=O)C(C)(C)C [Compound P61]")
"244 to 245 °C"

Per the records, this molecule ( CON1CCC2(CC1)NC(=O)C(c1c(C)cc(-c3ccc(Cl)cc3)cc1C)=C2OC(=O)C(C)(C)C [Compound P71] ) has melting point equal to > 250 °C

###

# System: Echinochloa crus-galli (ECHCG)
# Assay: Example B post-emergence herbicidal activity, glasshouse pot test
# Assay type: in vivo
# Experimental Context: 312 h, rate 250 g/ha, evaluated after 13 days, read-out: ECHCG post-emergence activity (100=total damage to plant; 0=no damage to plant)
Labelling: pest or weed control at 250 g/ha reported below 90% becomes Fulfilled; at or above becomes Not fulfilled.

>>> category("CON1CCC2(CC1)NC(=O)C(c1cc(C3CC3)c(C)cc1C)=C2OC(=O)C(C)(C)C")
"Fulfilled"
>>> category("CON1CCC2(CC1)NC(=O)C(c1cc(C3CC3)c(C)cc1C)C2=O (stereo not shown)")
"Fulfilled"
>>> category("CCOC(=O)OC1=C(c2c(C)cc(-c3ccc(Cl)cc3)cc2C)C(=O)NC12CCN(OC)CC2")
"Not fulfilled"
>>> category("CCOC(=O)OC1=C(c2ccc(Br)cc2Cl)C(=O)NC12CCN(OC)CC2")
"Not fulfilled"
>>> category("CON1CCC2(CC1)NC(=O)C(c1ccc(Br)cc1Cl)=C2OC(=O)C(C)(C)C")
"Not fulfilled"

Incoming: Is pest or weed control at 250 g/ha of CON1CCC2(CC1)NC(=O)C(c1ccc(Br)cc1C)C2=O (stereo not shown) strictly below 90%?
Outgoing: Fulfilled

###

Below, each entry is listed alongside its reported melting point.

Per the records, this compound ( CCOC(=O)OC1=C(c2cc(Br)c(C)cc2C)C(=O)NC12CCN(OC)CC2 ) has melting point equal to 206 to 209 °C

###

Below, each entry is listed alongside its reported pest or weed control at 1000 g/ha.
# Tested on: Setaria faberi (SETFA)
# Assay: Example B pre-emergence herbicidal activity, glasshouse pot test
# Format: in vivo
# Experimental Context: 312 h, first table (headed Post-Emergence, taken as pre-emergence), rate 1000 g/ha, evaluated after 13 days, read-out: SETFA activity (100=total damage to plant; 0=no damage to plant)
Your answer should be a plain number; it is taken to be in %.

>>> reported_value("CON1CCC2(CC1)NC(=O)C(c1ccc(Cl)cc1Cl)C2=O (centres unmarked)")
30
>>> reported_value("CCOC(=O)OC1=C(c2cc(-c3ccc(Cl)cc3)ccc2C)C(=O)NC12CCN(OC)CC2")
100
>>> reported_value("CON1CCC2(CC1)NC(=O)C(c1ccc(Cl)cc1Cl)=C2OC(=O)N(C)CCC#N")
60

Per the records, this molecule ( CON1CCC2(CC1)NC(=O)C(c1c(C)cc(Br)cc1C)C2=O (centres unmarked) ) has pest or weed control at 1000 g/ha equal to 90

Per the records, this molecule ( CCOC(=O)OC1=C(c2c(C)cc(C)cc2C)C(=O)NC12CCN(OC)CC2 ) has pest or weed control at 1000 g/ha equal to 100

Per the records, this molecule ( CCON1CCC2(CC1)NC(=O)C(c1c(C)cc(C)cc1C)C2=O (centres unmarked) ) has pest or weed control at 1000 g/ha equal to 90

Per the records, this molecule ( C=CCOC(=O)OC1=C(c2c(Cl)cccc2Cl)C(=O)NC12CCN(OC)CC2 ) has pest or weed control at 1000 g/ha equal to 30

Per the records, this molecule ( CON1CCC2(CC1)NC(=O)C(c1c(Cl)cccc1Cl)C2=O (centres unmarked) ) has pest or weed control at 1000 g/ha equal to 80

###

Below, each entry is listed alongside its reported pest or weed control at 250 g/ha.
# Tested on: Alopecurus myosuroides (ALOMY)
# Assay: Example B pre-emergence herbicidal activity, glasshouse pot test
# Format: in vivo
# Experimental Context: 312 h, first table (headed Post-Emergence, taken as pre-emergence), rate 250 g/ha, evaluated after 13 days, read-out: ALOMY activity (100=total damage to plant; 0=no damage to plant)
# Protocol: Seeds of a variety of test species are sown in standard soil in pots. […] After 13 days for pre and post-emergence, the test is evaluated (100=total damage to plant; 0=no damage to plant). […]
Your answer should be a plain number; it is taken to be in %.

Below: 3 compounds and their reported pest or weed control at 250 g/ha.
>>> reported_value("CON1CCC2(CC1)NC(=O)C(c1c(C)cc(-c3ccc(Cl)cc3)cc1C)C2=O (stereo not shown) [Compound T23]")
70
>>> reported_value("CON1CCC2(CC1)NC(=O)C(c1ccc(Br)cc1Cl)=C2OC(=O)C(C)(C)C [Compound P67]")
80
>>> reported_value("CCOC(=O)OC1=C(c2ccc(Br)cc2Cl)C(=O)NC12CCN(OC)CC2 [Compound P66]")
30

# context switch: different compound, same pest or weed control at 250 g/ha
Per the records, this compound ( CCOC(=O)OC1=C(c2c(C)cc(-c3ccc(Cl)cc3)cc2C)C(=O)NC12CCN(OC)CC2 [Compound P70] ) has pest or weed control at 250 g/ha equal to 90

###

Endpoint Label: melting point

Per the records, this molecule ( CON1CCC2(CC1)NC(=O)C(c1cc(Br)c(F)cc1C)=C2O [Compound T19] ) has melting point equal to 229 to 230 °C

###

Below, each entry is listed alongside its reported pest or weed control at 1000 g/ha.
# Tested on: Avena fatua (AVEFA)
# Assay: Example B pre-emergence herbicidal activity, glasshouse pot test
# Type: in vivo
# Experimental Context: 312 h, first table (headed Post-Emergence, taken as pre-emergence), rate 1000 g/ha, evaluated after 13 days, read-out: AVEFA activity (100=total damage to plant; 0=no damage to plant)

>>> reported_value("CCON1CCC2(CC1)NC(=O)C(c1c(C)cc(C)cc1C)C2=O (stereo not drawn)")
"90%"

Summary: CCOC(=O)OC1=C(c2c(C)cc(C)cc2C)C(=O)NC12CCN(OC)CC2 , Avena fatua (AVEFA), pest or weed control at 1000 g/ha = 90%

Summary: CCON1CCC2(CC1)NC(=O)C(c1c(C)cc(C)cc1C)=C2OC(=O)C(C)(C)C , Avena fatua (AVEFA), pest or weed control at 1000 g/ha = 0%

###

Below, each entry is listed alongside its reported pest or weed control at 1000 g/ha.
# Test system: Avena fatua (AVEFA)
# Assay: Example B pre-emergence herbicidal activity, glasshouse pot test
# Type: in vivo
# Experimental Context: 312 h, first table (headed Post-Emergence, taken as pre-emergence), rate 1000 g/ha, evaluated after 13 days, read-out: AVEFA activity (100=total damage to plant; 0=no damage to plant)
Your answer should be a plain number; it is taken to be in %.

Below: 5 compounds and their reported pest or weed control at 1000 g/ha.
>>> reported_value("CON1CCC2(CC1)NC(=O)C(c1c(C)cc(C)cc1C)C2=O (stereo not drawn)")
100
>>> reported_value("CON1CCC2(CC1)NC(=O)C(c1cc(C)ccc1C)=C2OC(=O)C(C)C")
40
>>> reported_value("CON1CCC2(CC1)NC(=O)C(c1c(C)cc(Br)cc1C)C2=O (stereo not drawn)")
80
>>> reported_value("CCOC(=O)OC1=C(c2c(C)cc(Br)cc2C)C(=O)NC12CCN(OC)CC2")
80
>>> reported_value("CON1CCC2(CC1)NC(=O)C(c1ccc(Cl)cc1Cl)=C2OC(=O)N(C)CCC#N")
0

Per the records, this compound ( CCOC(=O)OC1=C(c2ccc(Cl)cc2Cl)C(=O)NC12CCN(OC)CC2 ) has pest or weed control at 1000 g/ha equal to 50

Per the records, this compound ( CCOC(=O)OC1=C(c2c(C)cc(C)cc2C)C(=O)NC12CCN(OCC)CC2 ) has pest or weed control at 1000 g/ha equal to 90

Per the records, this compound ( C=CCOC(=O)OC1=C(c2c(C)cc(Br)cc2C)C(=O)NC12CCN(OC)CC2 ) has pest or weed control at 1000 g/ha equal to 80

Per the records, this compound ( CON1CCC2(CC1)NC(=O)C(c1ccc(Cl)cc1Cl)C2=O (stereo not drawn) ) has pest or weed control at 1000 g/ha equal to 40
